Assay: Toxicity liver stage against HepG2, at 10uM
Assay type: cell-based
Parameters: test concentration 10 uM, cell line HepG2-A16-CD81EGFP
Settings: human, HepG2-A16-CD81EGFP cells; read-out: INHIBITION
measurementLabel: cytotoxicity at 10 µM (%)
The response must be a number in % with no trailing unit.

Worked examples follow.
> print(dat)
                                   molecule       measurementlabel  experimentalresult
1  Cc1cccc(C(=O)N2CCCC2c2c(C)n[nH]c2C)c1 (stereo unspecified)  cytotoxicity at 10 µM                8.58
2  O=C(NCC1(COc2cnccn2)C[C@@H](O)[C@@H](O)C1)C1CCCC1 (stereo partly specified)  cytotoxicity at 10 µM               -1.81
3  O=C(O)CCc1cc2n(n1)CCCN(C(=O)c1cc3ccccc3s1)C2  cytotoxicity at 10 µM                0.45
4  CCc1nnc(Nc2cccc(C3CCN(c4cnccn4)CC3)n2)s1  cytotoxicity at 10 µM               -26.5
5    O=C(c1ccno1)N1CCc2ncnc(-c3ccncc3)c2CC1  cytotoxicity at 10 µM                6.59

// sample Cc1ccccc1OCC(O)CN1CCC(c2ccn[nH]2)CC1 (stereo unspecified) , its cytotoxicity at 10 µM was 0.531

// sample COCCN1CCCC(c2ncc(C(=O)N(C)C)c(C)n2)C1 (stereo unspecified) , its cytotoxicity at 10 µM was -1.21

// sample O=C(Cn1cc(Cl)cn1)N1CCCC(c2ccn[nH]2)C1 (stereo unspecified) , its cytotoxicity at 10 µM was -22.5

// sample CO[C@H]1CCN(S(=O)(=O)c2cccs2)[C@H]1Cc1cccnc1 , its cytotoxicity at 10 µM was -75.5

// sample Cc1n[nH]c(C2CN(CC(=O)NCc3sccc3C)CCO2)n1 (stereo unspecified) , its cytotoxicity at 10 µM was -4.75

// sample CC(C)CC(=O)NS(=O)(=O)c1ccc2c(c1)OCCCO2 , its cytotoxicity at 10 µM was -9.02

// sample CCC(C)C(=O)N(C)Cc1cc(F)ccc1N1CCC(OC)CC1 (stereo unspecified) , its cytotoxicity at 10 µM was -5.41

Recorded values, source ChEMBL document CHEMBL4513216.
